Entries and their measured log10 of TGI follow.
Test system: MOLT-4 leukemia
Test: NCI tumour cell line growth inhibition, 48 h
A value of 2 here means TGI of 100 in µM, since values are log10.

Before answering, review these 5 worked examples.
O=C(NCCCNc1cc(-c2cn(-c3ccccc3)nc2-c2cccc(O)c2)ccn1)c1ccccc1    0.58
CCCCCCCC(=O)OC(CBr)COC(=O)C(C)(C)C (stereo unspecified)    1.88
CN1c2ccccc2N(C)C2C1N(C)c1ccccc1N2C (stereo unspecified)    0.99
CCOC(=O)c1c(Br)c(-c2ccc(Br)cc2)c(Br)n1C    1.58
CN1CCCN(C)C1c1cc([N+](=O)[O-])ccc1O    1.78

Challenge: Look up log10 of TGI: CC[C@@]1(O)C(=O)NCc2c1cc1n(c2=O)Cc2cc3c(N)cccc3nc2-1
Response given: 1.22

Challenge: Input CCOc1cc(NC(C)=O)ccc1C(=O)NN1C(=O)C(Oc2ccccc2)C1c1ccccc1 (stereo unspecified)
Response given: 1.31

Challenge: Input O=C1C=C(Br)C(=O)C12CCc1ccccc12 (stereo unspecified)
Response given: 0.84

Challenge: And CCN1C(=S)N(CC)C2C1NC(=S)N2/N=C/C=C/c1ccccc1 (stereo unspecified) ?
Response given: 1.40

Challenge: Further, for CC(C)C(C/C=C1\CC(CO)(COC(=O)c2ccccc2)OC1=O)C(C)C (stereo unspecified) ?
Response given: 1.63

Challenge: Next compound up: Cc1ccc(OCC2OC(n3cnc4nc(Cl)nc(Cl)c43)CC2Oc2ccc(C)cc2)cc1 (stereo unspecified)
Response given: 0.76
